For each of the binders below, state its Kd.
# assay target: T1, cyno TF ECD-His (cTF-his) (monkey (cyno))
# T1 construct: also called bio-cTF-his; monkey TF-His protein
# T1 chain: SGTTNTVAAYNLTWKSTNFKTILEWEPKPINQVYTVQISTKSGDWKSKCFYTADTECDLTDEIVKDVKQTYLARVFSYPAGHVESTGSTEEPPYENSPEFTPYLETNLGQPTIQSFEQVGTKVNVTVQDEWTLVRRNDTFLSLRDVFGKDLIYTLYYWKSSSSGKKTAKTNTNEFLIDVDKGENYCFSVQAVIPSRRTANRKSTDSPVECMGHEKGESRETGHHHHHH
# measurement protocol: SPR Biacore T200, antibody on Protein A chip, TF-His as analyte, 1:1 model

Look over these answered cases.
| binder | Kd |
| --- | --- |
| hu67-15 (antibody, human IgG1, kappa, V domains shown) VH: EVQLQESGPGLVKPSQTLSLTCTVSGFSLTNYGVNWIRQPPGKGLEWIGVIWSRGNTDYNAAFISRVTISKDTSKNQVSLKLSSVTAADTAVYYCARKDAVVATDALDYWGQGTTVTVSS VL: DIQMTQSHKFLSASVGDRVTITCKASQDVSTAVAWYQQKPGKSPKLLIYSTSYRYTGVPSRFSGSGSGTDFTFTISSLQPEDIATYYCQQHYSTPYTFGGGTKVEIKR | 13.4 nM |
| hu310-2 (antibody, human IgG1, kappa, V domains shown) VH: EVQLVQSGAEVKKPGASVKVSCKASGYSFTGYYMNWVRQAPGQGLEWMGEINPSTGGSTYNQKFKARVTMTVDQSTSTVYMELSSLRSEDTAVYYCARRELGGPFGYWGQGTTVTVSS VL: SIVMTQSPDSLAVSLGERATINCKASQSVSNGIAWYQQKPGQSPKLLIYFASNRYTGVPDRFSGSGYGTDFTLTISSLQAEDVAVYYCQQDYSSPWTFGGGTKVEIKR | 19.2 nM |
| hu10H10-77 (antibody, V domains shown, H11+L9; Full-length IgG) VH: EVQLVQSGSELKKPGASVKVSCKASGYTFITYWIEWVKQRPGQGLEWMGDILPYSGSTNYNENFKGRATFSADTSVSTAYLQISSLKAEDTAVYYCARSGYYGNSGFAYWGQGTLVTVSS VL: DIQMTQSPSSLSASVGDRVTITCQSSQSLLSSGNQKNYLTWYQQKPGKAPKLLIYWASTRESGVPSRFSGSGSGTDFTLTISSLQPEDFATYYCQNDYTYPLTFGQGTKLEIK | 0.677 nM |
| hu67-16 (antibody, human IgG1, kappa, V domains shown) VH: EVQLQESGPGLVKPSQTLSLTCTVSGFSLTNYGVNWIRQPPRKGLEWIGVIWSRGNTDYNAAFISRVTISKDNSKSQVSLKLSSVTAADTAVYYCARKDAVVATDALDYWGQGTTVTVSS VL: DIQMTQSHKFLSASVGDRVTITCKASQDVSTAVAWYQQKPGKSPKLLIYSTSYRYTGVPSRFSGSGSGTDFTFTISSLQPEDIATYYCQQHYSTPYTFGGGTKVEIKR | 14.8 nM |

Below: the item to evaluate.
Param item = hu67-8 (antibody, human IgG1, kappa, V domains shown) VH: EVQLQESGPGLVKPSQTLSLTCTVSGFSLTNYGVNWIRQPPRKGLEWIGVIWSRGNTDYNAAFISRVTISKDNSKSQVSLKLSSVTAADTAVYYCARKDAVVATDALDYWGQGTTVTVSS VL: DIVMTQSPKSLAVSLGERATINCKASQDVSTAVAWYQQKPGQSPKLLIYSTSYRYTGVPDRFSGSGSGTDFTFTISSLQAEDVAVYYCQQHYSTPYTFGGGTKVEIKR ; retrieve measured Kd.
13.7 nM
